measured on: 14-3-3σ/C-RAF (Homo sapiens, UniProt P31947)
Construct: The 14-3-3 σ isoform (full-length for mass spectrometry and fluorescence anisotropy assays, ΔC for crystallography); made in house; host or cells: E. coli Rosetta 2(DE3)pLysS, pPROEX HTb vector
Sequence (P31947 1-248): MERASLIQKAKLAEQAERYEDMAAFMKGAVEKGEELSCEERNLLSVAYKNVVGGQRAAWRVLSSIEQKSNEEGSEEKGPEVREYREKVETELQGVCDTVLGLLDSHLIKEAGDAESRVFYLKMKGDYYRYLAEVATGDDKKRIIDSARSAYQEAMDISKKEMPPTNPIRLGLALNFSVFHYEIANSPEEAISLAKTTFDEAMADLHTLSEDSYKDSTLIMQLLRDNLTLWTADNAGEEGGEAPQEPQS
assay summary: Fluorescence anisotropy compound titration, FAM-labeled C-RAF peptide
Format: binding
condition set: EC50 value C-RAF (FA compound titration), 10 nM C-RAF-FAM labeled peptide, 5 µM 14-3-3σ, overnight incubation
result type: EC50

What the record says about O=C(CCl)NCC1CCN(C(=O)C2(Nc3ccc(Cl)cc3)CCCC2)CC1 : EC50 is > 150 µM
